Known melting point of a selection of compounds

Smiles Notation: Cn1c(COc2ccc(/C=C/C(=O)c3cccc(F)c3)cc2)nc2ccccc2c1=O
melting point: 208 to 209 °C
//
Smiles Notation: Cn1c(COc2ccc(NC(=O)c3cccc(F)c3)cc2)nc2ccccc2c1=O
melting point: 228 to 229 °C
//
Smiles Notation: Cn1c(COc2ccc(/C=C/c3cccc(F)c3)cc2)nc2ccccc2c1=O
melting point: 160 to 162 °C

###

Known IC50 of a selection of compounds
# Test System: EGFR^wt-TK (Homo sapiens, UniProt P00533)
# Construct: The recombinant EGFR^wt-TK and Antiphosphotyrosine mouse mAb were purchased from PTM Bio
# Sequence (P00533 25-1210): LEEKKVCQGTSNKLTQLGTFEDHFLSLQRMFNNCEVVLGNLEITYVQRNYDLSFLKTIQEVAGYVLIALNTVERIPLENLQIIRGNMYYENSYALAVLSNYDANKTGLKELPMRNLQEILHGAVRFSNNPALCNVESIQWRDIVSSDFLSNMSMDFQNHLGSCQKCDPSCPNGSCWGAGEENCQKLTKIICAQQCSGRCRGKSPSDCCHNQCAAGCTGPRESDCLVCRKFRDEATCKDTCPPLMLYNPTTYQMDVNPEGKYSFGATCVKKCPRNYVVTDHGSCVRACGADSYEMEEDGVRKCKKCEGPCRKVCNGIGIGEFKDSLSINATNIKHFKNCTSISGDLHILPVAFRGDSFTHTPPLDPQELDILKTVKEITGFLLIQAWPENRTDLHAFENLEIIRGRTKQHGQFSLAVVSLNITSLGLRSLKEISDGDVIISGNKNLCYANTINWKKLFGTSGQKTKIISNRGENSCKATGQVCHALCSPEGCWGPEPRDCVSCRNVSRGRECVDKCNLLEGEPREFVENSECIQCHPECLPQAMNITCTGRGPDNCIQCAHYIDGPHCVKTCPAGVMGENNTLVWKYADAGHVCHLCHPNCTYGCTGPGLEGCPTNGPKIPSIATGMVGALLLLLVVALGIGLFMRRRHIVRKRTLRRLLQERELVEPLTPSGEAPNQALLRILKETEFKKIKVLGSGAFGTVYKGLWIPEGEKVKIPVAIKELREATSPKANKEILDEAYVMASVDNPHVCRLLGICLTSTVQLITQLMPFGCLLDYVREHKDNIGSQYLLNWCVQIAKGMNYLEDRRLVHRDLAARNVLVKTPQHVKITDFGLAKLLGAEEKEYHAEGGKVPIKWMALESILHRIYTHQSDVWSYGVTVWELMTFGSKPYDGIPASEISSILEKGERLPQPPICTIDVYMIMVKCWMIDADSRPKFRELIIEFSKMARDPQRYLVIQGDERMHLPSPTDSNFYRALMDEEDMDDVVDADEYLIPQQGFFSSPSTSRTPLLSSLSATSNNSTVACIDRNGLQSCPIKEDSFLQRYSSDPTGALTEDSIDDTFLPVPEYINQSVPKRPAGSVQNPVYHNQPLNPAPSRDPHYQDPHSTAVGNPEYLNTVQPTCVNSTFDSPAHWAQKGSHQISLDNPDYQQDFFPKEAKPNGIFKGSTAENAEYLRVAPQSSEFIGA
# Assay Protocol: In vitro EGFR^wt-TK assay (ELISA)
# Experimental Conditions: mean ± SD of three replicates

Smiles Notation: Cn1c(COc2ccc(/C=C/C(=O)c3cccc(F)c3)cc2)nc2ccccc2c1=O
Unit Abbrev: nM
IC50: 2710
--
Smiles Notation: Cn1c(COc2ccc(NC(=O)Nc3cccc(F)c3)cc2)nc2ccccc2c1=O
Unit Abbrev: nM
IC50: 710
--
Smiles Notation: Cn1c(COc2ccc(NC(=O)/C=C/c3ccc(F)c(F)c3)cc2)nc2ccccc2c1=O
Unit Abbrev: nM
IC50: 380
--
Smiles Notation: Cn1c(COc2ccc(C(=O)Nc3cccc(F)c3)cc2)nc2ccccc2c1=O
Unit Abbrev: nM
IC50: 1630
--
Smiles Notation: Cn1c(COc2ccc(NC(=O)c3cccc(F)c3)cc2)nc2ccccc2c1=O
Unit Abbrev: nM
IC50: 53
--
Smiles Notation: Cn1c(COc2ccc(/C=C/c3cccc(F)c3)cc2)nc2ccccc2c1=O
Unit Abbrev: nM
IC50: 200
--
Smiles Notation: Cn1c(COc2ccc(NC(=O)c3ccc(F)c(F)c3)cc2)nc2ccccc2c1=O
Unit Abbrev: nM
IC50: 61
